The entries below come with measured growth (relative growth in % of the pathogen) values attached.
Test system: Botrytis cinerea
Assay: M1 Activity against the grey mold Botrytis cinerea in the microtiterplate test (Botrci)
Assay type: cell-based
Conditions: 31 ppm, 405 nm, 7 days after inoculation; compound-free control 100%
Report the figure in % without appending any unit label.

The cases that follow already have their growth (relative growth in % of the pathogen) on record.
[
  {
    "compound": "CC(O)(Cn1cncn1)c1ccc(-c2ccccc2)cc1Cl (stereo not shown) [Compound I-8]",
    "result.number": 0
  },
  {
    "compound": "C=CCCC(O)(Cn1cncn1)c1ccc(-c2ccccc2)cc1Cl (stereo not shown) [Compound I-9]",
    "result.number": 0
  }
]

Query string: // query growth (relative growth in % of the pathogen) value for entry CCC(O)(Cn1cncn1)c1ccc(-c2ccccc2)cc1Cl (stereo not shown) [Compound I-13]
Result string: 0

Query string: Quick check: growth (relative growth in % of the pathogen) of OC(Cn1cncn1)(c1ccc(-c2ccccc2)cc1Cl)C1CC1 (stereo not shown) [Compound I-1] ?
Result string: 0

Query string: Reported growth (relative growth in % of the pathogen) for CC(F)(F)C(O)(Cn1cncn1)c1ccc(-c2ccccc2)cc1Cl (stereo not shown) [Compound I-14] : what is it?
Result string: 0

Query string: For CC#CC(O)(Cn1cncn1)c1ccc(-c2ccccc2)cc1Cl (stereo not shown) [Compound I-10] , what is its reported growth (relative growth in % of the pathogen)?
Result string: 0

Query string: # lookup: growth (relative growth in % of the pathogen) of CC(C)(C)C(O)(Cn1cncn1)c1ccc(-c2ccccc2)cc1Cl (stereo not shown) [Compound I-7]
Result string: 0
